Values were extracted from patent US20230287044A1.

experiment: Solubility of antibacterial peptides in solution
Type: physicochemical
experimental-context: plasma or biological fluid
Square brackets hold non-standard residues; d marks the D form. Peptide text beside a SMILES is read from it.
measured-metric: solubility at 12 h (µM)
Answer in µM, number only, no unit symbol.

Check out these entries, answers already filled in.
compound | solubility at 12 h [µM]
CC[C@@H](C)[C@@H](NC(=O)[C@@H](Cc1c[nH]c2ccccc12)NC(=O)[C@H](NC(=O)[C@@H](CC(C)C)NC(=O)[C@H](N)Cc1c[nH]c2ccccc12)C(C)C)C(=O)N[C@H](Cc1c[nH]c2ccccc12)C(=O)N[C@H](CCC(N)=O)C(=O)N[C@H](CCCNC(=N)N)C(=O)N[C@H](CCCNC(=N)N)C(=O)N[C@H](CCCNC(=N)N)C(N)=O [KSH30, wlvwiwqrrr] (H-[dW][dL][dV][dW][dI][dW][dQ][dR][dR][dR]-NH2; N-terminus assumed) | 50
CC[C@@H](C)[C@@H](NC(=O)[C@@H](Cc1c[nH]c2ccccc12)NC(=O)[C@@H](CCCCN)NC(=O)[C@@H](CCCCN)NC(=O)[C@H](N)CCCCN)C(=O)N[C@H](Cc1c[nH]c2ccccc12)C(=O)N[C@@H](C(=O)N[C@H](CC(C)C)C(=O)N[C@H](Cc1c[nH]c2ccccc12)C(=O)N[C@H](CCCCN)C(N)=O)C(C)C [KSH46, kkkwiwvlwk] (H-[dK][dK][dK][dW][dI][dW][dV][dL][dW][dK]-NH2; N-terminus assumed) | 200

Request: Fill blank: measured solubility at 12 h of the compound CC(C)[C@@H](NC(=O)[C@H](N)Cc1c[nH]c2ccccc12)C(=O)N[C@@H](C(=O)N[C@H](Cc1c[nH]c2ccccc12)C(=O)N[C@@H](C(=O)N[C@@H](C(=O)N[C@H](Cc1c[nH]c2ccccc12)C(=O)N[C@H](CCCNC(=N)N)C(=O)N[C@H](CCCNC(=N)N)C(=O)N[C@H](CCCNC(=N)N)C(N)=O)C(C)C)C(C)C)C(C)C [KSH42, wvvwvvwrrr] (H-[dW][dV][dV][dW][dV][dV][dW][dR][dR][dR]-NH2; N-terminus assumed) is ____.
Response: 100

Request: solubility at 12 h lookup needed for CC[C@@H](C)[C@@H](NC(=O)[C@@H](Cc1c[nH]c2ccccc12)NC(=O)[C@H](NC(=O)[C@@H](CC(C)C)NC(=O)[C@@H](Cc1c[nH]c2ccccc12)NC(=O)[C@H](N)CC(=O)O)C(C)C)C(=O)N[C@H](Cc1c[nH]c2ccccc12)C(=O)N[C@H](CCCNC(=N)N)C(=O)N[C@H](CCCNC(=N)N)C(=O)N[C@H](CCCNC(=N)N)C(N)=O [KSH36, dwlvwiwrrr] (H-[dD][dW][dL][dV][dW][dI][dW][dR][dR][dR]-NH2; N-terminus assumed) , thanks.
Response: 100

Request: Fill blank: measured solubility at 12 h of the compound CC(C)[C@@H](NC(=O)[C@H](N)Cc1c[nH]c2ccccc12)C(=O)N[C@@H](C(=O)N[C@H](Cc1c[nH]c2ccccc12)C(=O)N[C@H](Cc1c[nH]c2ccccc12)C(=O)N[C@@H](C(=O)N[C@H](CCCNC(=N)N)C(=O)N[C@H](CCCNC(=N)N)C(=O)N[C@H](CCCNC(=N)N)C(N)=O)C(C)C)C(C)C [KSH40, wvvwwvrrr] (H-[dW][dV][dV][dW][dW][dV][dR][dR][dR]-NH2; N-terminus assumed) is ____.
Response: 100

Request: Need solubility at 12 h of CC[C@@H](C)[C@@H](NC(=O)[C@@H](Cc1c[nH]c2ccccc12)NC(=O)[C@H](NC(=O)[C@@H](CC(C)C)NC(=O)[C@H](N)Cc1c[nH]c2ccccc12)C(C)C)C(=O)N[C@H](Cc1c[nH]c2ccccc12)C(=O)N[C@H](CCCNC(=N)N)C(=O)N[C@H](CCCNC(=N)N)C(=O)N[C@H](CCCNC(=N)N)C(N)=O [KSH29, wlvwiwrrr] (H-[dW][dL][dV][dW][dI][dW][dR][dR][dR]-NH2; N-terminus assumed) , thanks.
Response: 50

Request: Using the record for CC(C)[C@@H](NC(=O)[C@H](N)Cc1c[nH]c2ccccc12)C(=O)N[C@@H](C(=O)N[C@H](Cc1c[nH]cn1)C(=O)N[C@@H](C(=O)N[C@@H](C(=O)N[C@H](Cc1c[nH]c2ccccc12)C(=O)N[C@H](CCCNC(=N)N)C(=O)N[C@H](CCCNC(=N)N)C(=O)N[C@H](CCCNC(=N)N)C(N)=O)C(C)C)C(C)C)C(C)C [KSH45, wvvhvvwrrr] (H-[dW][dV][dV][dH][dV][dV][dW][dR][dR][dR]-NH2; N-terminus assumed) , report its solubility at 12 h.
Response: 50

----------
This listing pairs molecules with measured solubility at 12 h.
experiment: Solubility of antibacterial peptides in solution
Assay type: physicochemical
experimental-context: plasma or biological fluid
Square brackets hold non-standard residues; d marks the D form. Peptide text beside a SMILES is read from it.

Some solved cases for reference:
molecule | solubility at 12 h
CC[C@@H](C)[C@@H](NC(=O)[C@@H](Cc1c[nH]c2ccccc12)NC(=O)[C@H](NC(=O)[C@@H](CC(C)C)NC(=O)[C@H](N)Cc1c[nH]c2ccccc12)C(C)C)C(=O)N[C@H](Cc1c[nH]c2ccccc12)C(=O)N[C@H](CCCNC(=N)N)C(=O)N[C@H](CCCNC(=N)N)C(N)=O [KSH32, wlvwiwrr] (H-[dW][dL][dV][dW][dI][dW][dR][dR]-NH2; N-terminus assumed) | 50 µM
CC[C@@H](C)[C@@H](NC(=O)[C@@H](Cc1c[nH]c2ccccc12)NC(=O)[C@@H](CCCNC(=N)N)NC(=O)[C@@H](CCCNC(=N)N)NC(=O)[C@H](N)CCCNC(=N)N)C(=O)N[C@H](Cc1c[nH]c2ccccc12)C(=O)N[C@@H](C(=O)N[C@H](CC(C)C)C(=O)N[C@H](Cc1c[nH]c2ccccc12)C(=O)N[C@H](CCCCN)C(N)=O)C(C)C [KSH43, rrrwiwvlwk] (H-[dR][dR][dR][dW][dI][dW][dV][dL][dW][dK]-NH2; N-terminus assumed) | > 25 µM

Okay, now this molecule:
Request: What value of measured solubility at 12 h is listed for CC[C@@H](C)[C@@H](NC(=O)[C@@H](Cc1c[nH]c2ccccc12)NC(=O)[C@H](NC(=O)[C@@H](CC(C)C)NC(=O)[C@H](N)Cc1c[nH]c2ccccc12)C(C)C)C(=O)N[C@H](Cc1c[nH]c2ccccc12)C(=O)N[C@H](CCCNC(=N)N)C(=O)N[C@H](CCCNC(=N)N)C(=O)N[C@H](CCC(N)=O)C(=O)N[C@H](CCCNC(=N)N)C(N)=O [KSH31, wlvwiwrrqr] (H-[dW][dL][dV][dW][dI][dW][dR][dR][dQ][dR]-NH2; N-terminus assumed) ?
Response: 25 µM

----------
System: MRAB (A. baumannii) ATCC BAA 1605
Format: cell-based, Acinetobacter baumannii
experimental-context: ATCC BAA 1605, 18 h
Square brackets hold non-standard residues; d marks the D form. Peptide text beside a SMILES is read from it.
measured-metric: MIC MRAB (A. baumannii) ATCC BAA 1605

Solved entries (count: 2):
molecule | MIC MRAB (A. baumannii) ATCC BAA 1605
CC(C)[C@@H](NC(=O)[C@@H](Cc1c[nH]c2ccccc12)NC(=O)[C@@H](CCCNC(=N)N)NC(=O)[C@@H](CCCNC(=N)N)NC(=O)[C@H](N)CCCNC(=N)N)C(=O)N[C@H](Cc1c[nH]c2ccccc12)C(=O)N[C@H](Cc1c[nH]c2ccccc12)C(=O)N[C@@H](C(=O)N[C@@H](C(=O)N[C@H](Cc1c[nH]c2ccccc12)C(N)=O)C(C)C)C(C)C [KSH80, rrrwvwwvvw] (H-[dR][dR][dR][dW][dV][dW][dW][dV][dV][dW]-NH2; N-terminus assumed) | 10 µM
CC[C@@H](C)[C@@H](NC(=O)[C@@H](Cc1c[nH]c2ccccc12)NC(=O)[C@H](NC(=O)[C@@H](CC(C)C)NC(=O)[C@@H](Cc1c[nH]c2ccccc12)NC(=O)[C@H](N)CC(=O)O)C(C)C)C(=O)N[C@H](Cc1c[nH]c2ccccc12)C(=O)N[C@H](CCCNC(=N)N)C(=O)N[C@H](CCCNC(=N)N)C(=O)N[C@H](CCCNC(=N)N)C(N)=O [KSH36, dwlvwiwrrr] (H-[dD][dW][dL][dV][dW][dI][dW][dR][dR][dR]-NH2; N-terminus assumed) | 5 µM

Request: Suppose we examine the molecule CC[C@@H](C)[C@@H](NC(=O)[C@@H](Cc1c[nH]c2ccccc12)NC(=O)[C@@H](C)NC(=O)[C@@H](C)NC(=O)[C@H](N)Cc1c[nH]c2ccccc12)C(=O)NCC(=O)N[C@H](CC(C)C)C(=O)N[C@H](CCCNC(=N)N)C(=O)N[C@H](CCCNC(=N)N)C(=O)N[C@H](CCCCN)C(=O)N[C@H](CCCCN)C(N)=O [KSH76, waawiglrrkk] (H-[dW][dA][dA][dW][dI]G[dL][dR][dR][dK][dK]-NH2; N-terminus assumed) ; what MIC MRAB (A. baumannii) ATCC BAA 1605 value has been reported?
Response: 1.25~2.5 µM

Request: Return reported MIC MRAB (A. baumannii) ATCC BAA 1605; argument: CC[C@H](C)[C@H](NC(=O)[C@H](Cc1c[nH]c2ccccc12)NC(=O)[C@@H](NC(=O)[C@H](CC(C)C)NC(=O)[C@@H](N)Cc1c[nH]c2ccccc12)C(C)C)C(=O)N[C@@H](Cc1c[nH]c2ccccc12)C(=O)N[C@@H](CCCNC(=N)N)C(=O)N[C@@H](CCCCN)C(=O)N[C@@H](CCCCN)C(=O)N[C@@H](CCCNC(=N)N)C(N)=O
Response: 5 µM

Request: Give its MIC MRAB (A. baumannii) ATCC BAA 1605 value. Item: CC[C@@H](C)[C@@H](NC(=O)[C@@H](Cc1c[nH]c2ccccc12)NC(=O)[C@@H](CCCNC(=N)N)NC(=O)[C@@H](CCCNC(=N)N)NC(=O)[C@H](N)CCCNC(=N)N)C(=O)N[C@H](Cc1c[nH]c2ccccc12)C(=O)N[C@H](C)C(=O)N[C@H](C)C(=O)N[C@H](Cc1c[nH]c2ccccc12)C(=O)N[C@H](CCCCN)C(N)=O [KSH74, rrrwiwaawk] (H-[dR][dR][dR][dW][dI][dW][dA][dA][dW][dK]-NH2; N-terminus assumed)
Response: 2.5 µM
